assay: changes in parasitized red cell lysis, either direction – P. falciparum Indochina, OD700, 3 h, PSAC antagonist project, primary screen (AID 1156); settings: P. falciparum-infected erythrocytes, osmotic lysis, higher = more signal, called active from +8 up or from −8 down
EXPERIMENTAL READOUT: z-score
Numbers only.

COMPOUND	z-score
CCN(CC)c1ccc(N2CC=CC34O[C@@H]5C=CCOC(=O)[C@@H]5[C@H]3C(=O)N(CCCCCO)[C@@H]4C2=O)cc1 (stereo partly drawn)	1.36

Provide z-score values for the following items, in order.
1. CC(C)CNC(=O)[C@@]1(C)c2ccccc2C(=O)N(C(C)C)[C@H]1c1ccc(CO)cc1
2. CC(C)N1C(=O)c2ccccc2[C@](C)(C(=O)NCCCN(C)C)[C@@H]1c1ccc(CO)cc1
3. O=C1c2ccccc2[C@](Cc2ccccc2I)(C(=O)O)[C@H](c2ccc(CO)cc2)N1Cc1ccccc1C(F)(F)F

Result:
1: 0.24; 2: 0.766; 3: 0.737

Provide z-score values for the following items, in order.
1. COc1ccc([Si](C)(C)[C@@H]2[C@@H](CC(=O)N3Cc4ccccc4C[C@H]3CO)O[C@]3(C(=O)N(Cc4cccc(N5C(=O)COc6ccccc65)c4)c4ccccc43)[C@H]2C)cc1
2. O=C1[C@H]2C=C(Br)[C@H](C[C@@H]2OCCOCCO)[C@@]12CO2
3. [N-]=[N+]=Nc1ccccc1[C@@H]1OC(c2ccc(OCCCO)cc2)=N[C@]1(CCS(=O)(=O)c1ccccc1)C(=O)N1CCCCC1
4. CN(C)CCCN1C(=O)[C@@]2(c3ccc([N+](=O)[O-])cc3)CC(=O)N(C3CCCCC3)[C@@H]2c2ccc(CO)cc21
5. COC(=O)[C@@]1(Cc2ccc(F)cc2)[C@H]2c3cc(C(=O)N4CCCC4)n(CCc4ccc(OC)c(Br)c4)c3C[C@H]2CN1C(=O)c1ccccc1
6. COCCOC(=O)N1C(=O)[C@@]2(c3ccccc31)[C@H](C(=O)N1CCCCCCC1)[C@H]1C(=O)O[C@H](c3ccccc3)[C@H](c3ccccc3)N1[C@@H]2c1ccccc1OCCO

Result:
1: -0.0434; 2: -0.0195; 3: 1.7; 4: -1.12; 5: 0.248; 6: 0.537

Origin of measurements: PubChem BioAssay
